- SYSTEM NAME: human glucagon receptor (Homo sapiens, UniProt P47871)
- Construct: expressed in transfected cells; host or cells: BHK (baby hamster kidney) cells
- Sequence (P47871 26-477): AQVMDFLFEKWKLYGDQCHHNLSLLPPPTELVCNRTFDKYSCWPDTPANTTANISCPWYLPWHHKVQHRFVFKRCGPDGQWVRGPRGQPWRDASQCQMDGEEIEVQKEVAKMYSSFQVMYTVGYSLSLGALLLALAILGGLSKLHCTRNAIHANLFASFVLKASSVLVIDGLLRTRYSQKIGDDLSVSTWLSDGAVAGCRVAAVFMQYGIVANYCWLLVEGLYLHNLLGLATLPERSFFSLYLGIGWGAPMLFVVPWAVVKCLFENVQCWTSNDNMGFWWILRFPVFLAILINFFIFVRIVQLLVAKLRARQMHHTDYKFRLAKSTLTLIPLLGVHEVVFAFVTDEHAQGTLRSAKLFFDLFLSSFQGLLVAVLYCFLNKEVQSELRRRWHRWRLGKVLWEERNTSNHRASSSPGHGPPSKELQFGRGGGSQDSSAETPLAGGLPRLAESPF
- TEST: Glucagon Binding Assay (III)
- COND: BHK cell membranes, WGA SPA beads, 125I-glucagon; read-out: Glu Bd Assay (III) IC50
Could you please report measured pIC50 for the items listed next?
Scale explanation: pIC50 corresponds to minus log10 of a concentration expressed in moles per litre.

(Q) Query (compound): O=C(O)CCNC(=O)c1ccc(CN(C(=O)Nc2cc(Cl)cc(Cl)c2)c2ccc(C3CCCCC3)cc2)cc1 [Example 232] ; field requested: pIC50
(A) 7.52

(Q) Query (compound): CC(C)c1ccc(NC(=O)N(Cc2ccc(C(=O)NCCC(=O)O)cc2)CC(c2ccccc2)c2ccccc2)cc1 [Example 55] ; field requested: pIC50
(A) 6.00

(Q) Query (compound): O=C(O)CCNC(=O)c1ccc(CN(C(=O)Oc2cc(Cl)cc(Cl)c2)c2ccc(C3CCCCC3)cc2)cc1 [Example 400] ; field requested: pIC50
(A) 6.27

(Q) Query (compound): O=C(O)CCNC(=O)c1ccc(CN(C(=O)Nc2cc(Br)cc(C(F)(F)F)c2)[C@H]2CC[C@H](C3CCCCC3)CC2)cc1 [Example 393] ; field requested: pIC50
(A) 7.77

(Q) Query (compound): CCC[C@H]1CC[C@H](N(Cc2ccc(C(=O)NCCC(=O)O)cc2)C(=O)Nc2ccc(OC(F)(F)F)cc2)CC1 [Example 76] ; field requested: pIC50
(A) 6.87

(Q) Query (compound): O=C(Nc1nn[nH]n1)c1ccc(CN(C(=O)Nc2cc(Br)cc(C(F)(F)F)c2)c2ccc(C3CCCCC3)cc2)cc1 [Example 264] ; field requested: pIC50
(A) 8.05

(Q) Query (compound): CC(C)(C)c1ccc(N(Cc2ccc(C(=O)Nc3nn[nH]n3)cc2)C(=O)Nc2ccc3ncsc3c2)cc1 [Example 257] ; field requested: pIC50
(A) 6.16

(Q) Query (compound): CC(C)(C)c1ccc(N(Cc2ccc(C(=O)Nc3nn[nH]n3)cc2)C(=O)Nc2cccc(C(F)(F)F)c2)cc1 [Example 294] ; field requested: pIC50
(A) 7.30

(Q) Query (compound): O=C(Nc1nn[nH]n1)c1ccc(CN(C(=O)NCc2ccccc2-c2ccccc2)c2ccc(C3=CCCCC3)cc2)cc1 [Example 353] ; field requested: pIC50
(A) 7.66

(Q) Query (compound): CC(C)c1noc(-c2cccc(NC(=O)N(Cc3ccc(C(=O)Nc4nn[nH]n4)cc3)c3ccc(C4CCCCC4)cc3)c2)n1 [Example 468] ; field requested: pIC50
(A) 7.64

* * *

- SYSTEM NAME: cloned human glucagon receptor (Homo sapiens, UniProt P47871)
- Construct: expressed in transfected cells; plasma membrane preparation
- Sequence (P47871 26-477): as above
- TEST: Glucagon Binding Assay (II)
- COND: plasma membranes of BHK cells expressing the receptor; read-out: Glu Bd Assay (II) IC50
ASSAY METRIC: IC50 (nM)
Express it in nM; write the number only.

(Q) Query (molecule): CC1C(N(Cc2ccc(C(=O)NCCC(=O)O)cc2)C(=O)Nc2cc(Cl)cc(Cl)c2)CC2CC1C2(C)C (stereo not drawn) ; field requested: IC50
(A) 575

(Q) Query (molecule): CC(C)(C)C1CCC(N(Cc2ccc(S(=O)(=O)NCCC(=O)O)cc2)C(=O)Nc2ccc(OC(F)(F)F)cc2)CC1 (stereo not drawn) ; field requested: IC50
(A) 468

(Q) Query (molecule): Cc1cc(C)c(Cc2ccc(C(=O)NN(Cc3ccc(C(=O)NCCC(=O)O)cc3)c3ccc(C4CCCCC4)cc3)o2)c(C)c1 ; field requested: IC50
(A) 16

* * *

- SYSTEM NAME: cloned human glucagon receptor (Homo sapiens)
- Construct: expressed in transfected cells; plasma membrane preparation
- TEST: Glucagon Binding Assay (II)
- COND: plasma membranes of BHK cells expressing the receptor; read-out: Glu Bd Assay (II) IC50
pIC50: −log10 of the molar value.
pIC50 of 7 or higher: met. Under 7: not met.

(Q) Entry CC(C)(C)C1CCC(N(Cc2ccc(C(=O)NCCc3nnn[nH]3)cc2)C(=O)Nc2cc(Cl)cc(Cl)c2)CC1 (stereo not drawn) : is its pIC50 no less than 7?
(A) not met

(Q) Entry CCCCc1ccc(N(Cc2ccc(C(=O)NCCC(=O)O)cc2)C(=O)Nc2ccc(OC(F)(F)F)cc2)cc1 [drawing 1186] : is its pIC50 no less than 7?
(A) met

(Q) Entry O=C(O)CCNC(=O)c1ccc(CN(C(=O)Nc2cc(Cl)cc(Cl)c2)C2Cc3ccccc3C2)cc1 : is its pIC50 no less than 7?
(A) not met

(Q) Entry O=C(Nc1nn[nH]n1)c1ccc(CN(Cc2cccc(Br)c2)c2ccc(C3CCCCC3)cc2)cc1 : is its pIC50 no less than 7?
(A) not met

(Q) Entry CC(C)(C)C1CCC(N(Cc2ccc(S(=O)(=O)NCCC(=O)O)cc2)C(=O)Nc2ccc(SC(F)(F)F)cc2)CC1 (stereo not drawn) : is its pIC50 no less than 7?
(A) not met

(Q) Entry CC1CCC(N(Cc2ccc(C(=O)NCCC(=O)O)cc2)C(=O)Nc2ccc(-c3ccccc3)cc2)CC1 (stereo not drawn) : is its pIC50 no less than 7?
(A) not met

* * *

- SYSTEM NAME: human glucagon receptor (Homo sapiens, UniProt P47871)
- Construct: expressed in transfected cells; host or cells: BHK (baby hamster kidney) cells
- TEST: Glucagon Binding Assay (III)
- COND: BHK cell membranes, WGA SPA beads, 125I-glucagon; read-out: Glu Bd Assay (III) IC50
IC50 vs 100 nM: less than gives true; not less than gives false.

(Q) Given CCCCC(CC)CN(Cc1ccc(C(=O)NCCC(=O)O)cc1)C(=O)Nc1ccc(C(F)(F)F)cc1 (centres unmarked) , is recorded IC50 strictly lower than 100 nM?
(A) false

(Q) Given CC(C)Oc1ccc(C(=O)N(Cc2ccc(C(=O)Nc3nn[nH]n3)cc2)C2CCC(C(C)(C)C)CC2)cc1 (centres unmarked) , is recorded IC50 strictly lower than 100 nM?
(A) false

(Q) Given CCCCOC(=O)c1ccc(NC(=O)N(Cc2ccc(C(=O)NCCC(=O)O)cc2)CC(CC)CCCC)cc1 (centres unmarked) , is recorded IC50 strictly lower than 100 nM?
(A) false

(Q) Given O=C(Nc1nn[nH]n1)c1ccc(CN(C(=O)NCc2ccccc2Br)c2ccc(C3CCCCC3)cc2)cc1 , is recorded IC50 strictly lower than 100 nM?
(A) true

* * *

- SYSTEM NAME: human glucagon receptor (Homo sapiens, UniProt P47871)
- Construct: expressed in transfected cells; host or cells: BHK (baby hamster kidney) cells
- TEST: Glucagon Binding Assay (III)
- COND: BHK cell membranes, WGA SPA beads, 125I-glucagon; read-out: Glu Bd Assay (III) IC50
pIC50: −log10 of the molar value.
pIC50 of 7 or higher: satisfied. Under 7: not satisfied.

(Q) Entry O=C(Nc1nn[nH]n1)c1ccc(CN(C(=O)Nc2cccc(S(=O)(=O)C(F)(F)F)c2)c2ccc(C3CCCCC3)cc2)cc1 [Example 303] : is its pIC50 no less than 7?
(A) satisfied

(Q) Entry O=C(Nc1nn[nH]n1)c1ccc(CN(C(=O)c2ccc(Cc3ccccc3)cc2)c2ccc(N3CCCCC3)cc2)cc1 [Example 519] : is its pIC50 no less than 7?
(A) not satisfied

(Q) Entry CC(C)(C)c1ccc(N(Cc2ccc(C(=O)Nc3nn[nH]n3)cc2)C(=O)Nc2cc(Cl)cc(Cl)c2)cc1 [Example 333] : is its pIC50 no less than 7?
(A) satisfied

(Q) Entry O=C(O)CCNC(=O)c1ccc(CN(NC(=O)c2ccc(OC(F)(F)F)cc2)C2C[C@@H]3C[C@H]2C2CCCC23)cc1 (stereo partly drawn) [Example 425] : is its pIC50 no less than 7?
(A) not satisfied

(Q) Entry CC1CCCCC1N(Cc1ccc(C(=O)NCCC(=O)O)cc1)C(=O)Nc1ccc(Oc2ccccc2)cc1 (stereo not drawn) [Example 48] : is its pIC50 no less than 7?
(A) not satisfied

(Q) Entry O=C(Nc1nn[nH]n1)c1ccc(CN(C(=O)c2cc(-c3ccc(Cl)cc3)cs2)c2ccc(C3CCCCC3)cc2)cc1 [Example 565] : is its pIC50 no less than 7?
(A) not satisfied

(Q) Entry CC(C)c1ccc(NC(=O)N(Cc2ccc(C(=O)NCCC(=O)O)cc2)C2CC3CC(C2C)C3(C)C)cc1 (stereo not drawn) [Example 66] : is its pIC50 no less than 7?
(A) not satisfied

(Q) Entry O=C(O)CCNC(=O)c1ccc(CN(C(=O)Oc2cc(C(F)(F)F)cc(C(F)(F)F)c2)c2ccc(C3CCCCC3)cc2)cc1 [Example 419] : is its pIC50 no less than 7?
(A) not satisfied

(Q) Entry O=C(Nc1nn[nH]n1)c1ccc(CN(C(=O)Nc2nc3ccc(OC(F)(F)F)cc3s2)c2ccc(C3CCCCC3)cc2)cc1 [Example 341] : is its pIC50 no less than 7?
(A) satisfied
